Each recorded value in this set is attributed to paper PMC9301635.

# Test system: HT29
# protocol.summary: MTT viability test, HT29
# Type: cell-based, human
# conditions.used: Homo sapiens, HT-29, 72 h, read-out: IC50 HT29 MTT
pIC50: −log10 of the molar value.
endpoint.label: pIC50

Which pIC50 is reported with HT29 for this entry: Cc1cccc(Nc2ccccc2C(=O)O)c1C [compound 1, Mefenamic acid, reference compound] ?
< 3.70

###

# subject.of.test: ovine COX-1 (Ovis aries)
# Sequence (P05979 25-600): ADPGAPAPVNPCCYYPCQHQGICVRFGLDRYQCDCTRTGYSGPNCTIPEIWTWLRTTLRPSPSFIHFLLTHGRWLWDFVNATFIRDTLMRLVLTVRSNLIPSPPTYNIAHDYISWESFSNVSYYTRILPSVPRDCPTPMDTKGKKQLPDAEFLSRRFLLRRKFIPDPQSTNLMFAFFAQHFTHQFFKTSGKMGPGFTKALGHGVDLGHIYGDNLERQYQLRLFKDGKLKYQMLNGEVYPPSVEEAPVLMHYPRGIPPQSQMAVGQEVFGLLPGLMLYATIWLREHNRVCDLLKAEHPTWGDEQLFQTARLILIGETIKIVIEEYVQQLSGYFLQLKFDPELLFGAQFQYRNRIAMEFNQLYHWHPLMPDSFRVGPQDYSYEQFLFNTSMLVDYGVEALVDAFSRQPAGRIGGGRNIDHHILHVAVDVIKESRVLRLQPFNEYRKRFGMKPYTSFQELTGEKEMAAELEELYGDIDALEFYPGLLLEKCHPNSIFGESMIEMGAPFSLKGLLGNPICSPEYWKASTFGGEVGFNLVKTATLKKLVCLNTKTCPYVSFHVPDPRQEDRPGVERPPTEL
# protocol.summary: COX Fluorescent Inhibitor Screening Assay Kit
# Assay type: biochemical
endpoint.label: pIC50
// field semantics: pIC50 = negative decimal log of concentration (mol/L)

# pIC50 lookup, item Cc1cccc(Nc2ccccc2C(=O)O)c1C [compound 1, Mefenamic acid, reference compound]
6.92

###

# Test system: CT26
# protocol.summary: Crystal violet
# Type: cell-based, mouse
# conditions.used: Mus musculus, CT26, 72 h, read-out: IC50 CT26 CV
endpoint.label: pIC50
Just the number, please; pIC50 means minus log10 of the concentration in mol/L.

Give CT26 pIC50 for Cc1cccc(Nc2ccccc2C(=O)O)c1C [compound 1, Mefenamic acid, reference compound]
3.79
